- EXPERIMENTAL_TARGET: UniProtKB P28571
- ASSAY_NOTES: Glycine Uptake Inhibition Assay (mGlyT-1b)
- CONDITION_SUMMARY: [3H]-glycine uptake inhibition at GlyT-1, Flp-in-CHO cells transfected with mGlyT-1b cDNA
pIC50: −log10 of the molar value.
REPORTED_METRIC: pIC50

INSERT INTO measurements (molecule, reported_metric, value) VALUES
  ('O=C(c1cc([N+](=O)[O-])ccc1OC1CCCC1)N1CCN(c2ccc(C(F)(F)F)cc2)CC1', 'pIC50', 8.10),
  ('CC(Oc1ccc(S(C)(=O)=O)cc1C(=O)N1CCN(c2ccc(C(F)(F)F)cn2)CC1)C(F)(F)F (racemic) [compound 408]', 'pIC50', 7.43),
  ('CC(Oc1ccc(S(C)(=O)=O)cc1C(=O)N1CCN(c2ccc(C(F)(F)F)cc2)CC1)C(F)(F)F (single isomer, unassigned) [compound 469]', 'pIC50', 7.70);

(1) CS(=O)(=O)c1ccc(OCC2CCC2)c(C(=O)N2CCN(c3cc(F)c(C#N)cc3F)CC2)c1
(2) CC(=O)c1ccc(N2CCN(C(=O)c3cc(S(C)(=O)=O)ccc3OCC(C)C)CC2)cc1F
Data request: Would you let me know which has the greater pIC50 value, 1 or 2 ? State the label of the item chosen.
Data returned: 2
(2: 8.22, 1: 7.72)

(P) CC(Oc1ccc(S(C)(=O)=O)cc1C(=O)N1CCN(c2ccc(C(F)(F)F)cc2F)CC1)C(F)(F)F (racemic) [compound 302]
(Q) CS(=O)(=O)c1ccc(OCC(F)(F)C(F)F)c(C(=O)N2CCN(c3ccc(C(F)(F)F)cc3F)CC2)c1
(R) CC(C)(C)COc1ccc([N+](=O)[O-])cc1C(=O)N1CCN(c2ccc(C(F)(F)F)cc2)CC1
Data request: Give the ascending ranking of the items by reported pIC50. Would you mind listing the labels in the order asked for?
Data returned: Q, P, R

(A) CNS(=O)(=O)c1ccc(OCC(C)(C)C)c(C(=O)N2CCN(c3ccc(C(F)(F)F)cc3)CC2)c1
(B) CS(=O)(=O)c1ccc(OC2CCCC2)c(C(=O)N2CCN(c3cc(F)c(C#N)cc3F)CC2)c1
Data request: Would you let me know which has the greater pIC50 value, A or B ? State the label of the item chosen.
Data returned: A

(a) CC(C)(C)COc1ccc(S(C)(=O)=O)cc1C(=O)N1CCN(c2ccc(C(F)(F)F)c(F)c2)CC1
(b) CCS(=O)(=O)c1ccc(N2CCN(C(=O)c3cc(S(C)(=O)=O)ccc3OCC(C)C)CC2)c(F)c1
Data request: Looking at recorded values for pIC50, does a or b come in lower? State the label of the item chosen.
Data returned: b
(b: 7.52, a: 7.80)

(I) CCS(=O)(=O)c1ccc(N2CCN(C(=O)c3cc(S(C)(=O)=O)ccc3OC3CCCCC3)CC2)c(F)c1
(II) CC(Oc1ccc(S(C)(=O)=O)cc1C(=O)N1CCN(c2ccc(C#N)c(F)c2)CC1)C(F)(F)F (racemic)
Data request: Would you let me know which has the greater pIC50 value, I or II ? State the label of the item chosen.
Data returned: II

====

- EXPERIMENTAL_TARGET: mGlyT-1b (Mus musculus, UniProt P28571)
- Sequence (P28571 1-651 isoform P28571-2): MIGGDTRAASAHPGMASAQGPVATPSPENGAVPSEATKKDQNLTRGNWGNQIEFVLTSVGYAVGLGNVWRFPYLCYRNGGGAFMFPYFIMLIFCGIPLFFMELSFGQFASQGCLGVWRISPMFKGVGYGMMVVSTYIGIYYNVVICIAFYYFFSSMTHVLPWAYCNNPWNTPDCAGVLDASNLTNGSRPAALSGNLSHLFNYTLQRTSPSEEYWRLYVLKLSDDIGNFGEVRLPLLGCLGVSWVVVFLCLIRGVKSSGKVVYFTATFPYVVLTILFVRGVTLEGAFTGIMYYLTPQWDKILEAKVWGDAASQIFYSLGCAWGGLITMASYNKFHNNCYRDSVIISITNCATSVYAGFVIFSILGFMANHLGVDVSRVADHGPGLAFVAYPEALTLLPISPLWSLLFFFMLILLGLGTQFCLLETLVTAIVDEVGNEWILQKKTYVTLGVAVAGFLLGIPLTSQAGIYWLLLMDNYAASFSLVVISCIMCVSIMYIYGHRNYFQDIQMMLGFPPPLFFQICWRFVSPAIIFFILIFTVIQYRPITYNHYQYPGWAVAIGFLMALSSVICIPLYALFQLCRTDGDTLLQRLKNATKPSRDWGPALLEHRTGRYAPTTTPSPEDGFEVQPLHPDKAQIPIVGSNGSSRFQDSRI
- ASSAY_NOTES: Glycine Uptake Inhibition Assay (mGlyT-1b)
- CONDITION_SUMMARY: [3H]-glycine uptake inhibition at GlyT-1, Flp-in-CHO cells transfected with mGlyT-1b cDNA
REPORTED_METRIC: IC50 (µM)

Completed entries (count: 3):
INSERT INTO results (molecule, value) VALUES
  ('CC(=O)c1ccc(N2CCN(C(=O)c3cc(S(C)(=O)=O)ccc3OC3CCCCC3)CC2)c(F)c1', 0.021),
  ('CCC(C)Oc1ccc(S(C)(=O)=O)cc1C(=O)N1CCN(c2ccc(C(F)(F)F)cc2F)CC1 (racemic)', 0.039),
  ('CC(Oc1ccc(S(C)(=O)=O)cc1C(=O)N1CCN(c2ncc(C(F)(F)F)cc2Cl)CC1)C(F)(F)F (racemic)', 0.027);

(a) CS(=O)(=O)c1ccc(OCC(F)(F)C(F)F)c(C(=O)N2CCN(c3ccc(C#N)cc3F)CC2)c1
(b) CC(Oc1ccc(S(C)(=O)=O)cc1C(=O)N1CCN(c2ccc(C(F)(F)F)c(F)c2)CC1)C(F)(F)F (racemic)
Data request: Looking at recorded values for IC50, does a or b come in lower? State the label of the item chosen.
Data returned: b

(A) CC(C)(C)COc1ccc(S(C)(=O)=O)cc1C(=O)N1CCN(c2ccc(C#N)cc2F)CC1
(B) CS(=O)(=O)c1ccc(OCC2CCC2)c(C(=O)N2CCN(c3ccc(C#N)cc3)CC2)c1
Data request: Would you let me know which has the greater IC50 value, A or B ? State the label of the item chosen.
Data returned: B
(B: 0.027 µM, A: 0.013 µM)

====

- EXPERIMENTAL_TARGET: mGlyT-1b (Mus musculus)
- ASSAY_NOTES: Glycine Uptake Inhibition Assay (mGlyT-1b)
- CONDITION_SUMMARY: [3H]-glycine uptake inhibition at GlyT-1, Flp-in-CHO cells transfected with mGlyT-1b cDNA
REPORTED_METRIC: IC50 (nM)

INSERT INTO results (compound, experimental_target, value) VALUES
  ('CS(=O)(=O)c1ccc(OCC(F)(F)C(F)F)c(C(=O)N2CCN(c3ccc(C#N)c(F)c3F)CC2)c1', 'mGlyT-1b (Mus musculus)', 21);

(a) CC(Oc1ccc(S(C)(=O)=O)cc1C(=O)N1CCN(c2cc(F)c(C#N)cc2F)CC1)C(F)(F)F (racemic)
(b) CC(C)COc1ccc(S(C)(=O)=O)cc1C(=O)N1CCN(c2c(F)cc(C#N)cc2F)CC1
(c) CNS(=O)(=O)c1ccc(OCCC(F)(F)F)c(C(=O)N2CCN(c3ccc(C(F)(F)F)cc3)CC2)c1
(d) CNS(=O)(=O)c1ccc(OC(C)C)c(C(=O)N2CCN(c3ccc(C(F)(F)F)cc3)CC2)c1
Data request: Give the ascending ranking of the items by reported IC50. Would you mind listing the labels in the order asked for?
Data returned: d, b, c, a
(d: 9 nM, b: 19 nM, c: 28 nM, a: 43 nM)

(I) CS(=O)(=O)c1ccc(OCC2CCC2)c(C(=O)N2CCN(c3cc(F)c(C#N)c(F)c3)CC2)c1
(II) CNS(=O)(=O)c1ccc(OC2CCC2)c(C(=O)N2CCN(c3ccc(C(F)(F)F)cc3)CC2)c1
Data request: Looking at recorded values for IC50, does I or II come in lower? State the label of the item chosen.
Data returned: II

(a) C[C@H](Oc1ccc(S(C)(=O)=O)cc1C(=O)N1CCN(c2ncc(C(F)(F)F)cc2F)CC1)C(F)(F)F (racemic)
(b) CS(=O)(=O)c1ccc(OC2CCCC2)c(C(=O)N2CCN(c3cc(F)c(C#N)c(F)c3)CC2)c1
Data request: Would you let me know which has the greater IC50 value, a or b ? State the label of the item chosen.
Data returned: a
(a: 30 nM, b: 19 nM)

(P) CNS(=O)(=O)c1ccc(OCC(C)C)c(C(=O)N2CCN(c3ccc(C#N)cc3F)CC2)c1
(Q) CNS(=O)(=O)c1ccc(OCC(C)C)c(C(=O)N2CCN(c3ccc(C#N)cc3)CC2)c1
Data request: Would you let me know which has the greater IC50 value, P or Q ? State the label of the item chosen.
Data returned: Q
(Q: 39 nM, P: 25 nM)

====

- EXPERIMENTAL_TARGET: mGlyT-1b (Mus musculus, UniProt P28571)
- ASSAY_NOTES: Glycine Uptake Inhibition Assay (mGlyT-1b)
- CONDITION_SUMMARY: [3H]-glycine uptake inhibition at GlyT-1, Flp-in-CHO cells transfected with mGlyT-1b cDNA
pIC50: −log10 of the molar value.
REPORTED_METRIC: pIC50

Completed entries (count: 3):
INSERT INTO measurements (molecule, reported_metric, value) VALUES
  ('CC(=O)c1ccc(N2CCN(C(=O)c3cc(S(C)(=O)=O)ccc3OCC3CC3)CC2)c(F)c1 [Example 15]', 'pIC50', 7.82),
  ('CS(=O)(=O)c1ccc(OC2CCCCC2)c(C(=O)N2CCN(c3ccc(C#N)cc3)CC2)c1 [compound 282]', 'pIC50', 7.57),
  ('CC(C)Oc1ccc(S(C)(=O)=O)cc1C(=O)N1CCN(c2ncc(C(F)(F)F)cc2Cl)CC1 [compound 417]', 'pIC50', 7.34);

(A) CNS(=O)(=O)c1ccc(OCC2CC2)c(C(=O)N2CCN(c3ccc(C(F)(F)F)cc3)CC2)c1 [compound 529]
(B) CS(=O)(=O)c1ccc(OC2CCCCC2)c(C(=O)N2CCN(c3ccc(C#N)cc3F)CC2)c1 [compound 283]
(C) CC(C)Oc1ccc(S(C)(=O)=O)cc1C(=O)N1CCN(c2ccc(C=O)cc2F)CC1 [compound 461]
(D) O=C(c1cc([N+](=O)[O-])ccc1OCC1CC1)N1CCN(c2ccc(C(F)(F)F)cc2)CC1 [Example 63]
Data request: Sequence the entries by pIC50, beginning with the highest number. Would you mind listing the labels in the order asked for?
Data returned: B, A, D, C
(B: 8.10, A: 7.89, D: 7.55, C: 7.34)

Data origin: patent US7605163B2
